Documented IC50 across a set of molecules
# studyTarget: Tumour suppressor p53/oncoprotein Mdm2 (Homo sapiens, UniProt Q00987)
# Sequence (P04637 whole entry): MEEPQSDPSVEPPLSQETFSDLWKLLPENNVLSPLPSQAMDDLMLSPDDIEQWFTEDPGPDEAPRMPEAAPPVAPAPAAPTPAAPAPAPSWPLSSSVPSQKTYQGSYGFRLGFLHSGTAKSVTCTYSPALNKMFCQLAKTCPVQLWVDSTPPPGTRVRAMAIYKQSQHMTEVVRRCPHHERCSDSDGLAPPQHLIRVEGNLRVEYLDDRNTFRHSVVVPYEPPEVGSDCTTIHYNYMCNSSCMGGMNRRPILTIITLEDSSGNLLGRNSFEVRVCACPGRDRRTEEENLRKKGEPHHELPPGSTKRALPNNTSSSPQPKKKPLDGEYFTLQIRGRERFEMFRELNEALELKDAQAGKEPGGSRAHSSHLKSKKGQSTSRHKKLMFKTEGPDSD
# Sequence (Q00987 whole entry): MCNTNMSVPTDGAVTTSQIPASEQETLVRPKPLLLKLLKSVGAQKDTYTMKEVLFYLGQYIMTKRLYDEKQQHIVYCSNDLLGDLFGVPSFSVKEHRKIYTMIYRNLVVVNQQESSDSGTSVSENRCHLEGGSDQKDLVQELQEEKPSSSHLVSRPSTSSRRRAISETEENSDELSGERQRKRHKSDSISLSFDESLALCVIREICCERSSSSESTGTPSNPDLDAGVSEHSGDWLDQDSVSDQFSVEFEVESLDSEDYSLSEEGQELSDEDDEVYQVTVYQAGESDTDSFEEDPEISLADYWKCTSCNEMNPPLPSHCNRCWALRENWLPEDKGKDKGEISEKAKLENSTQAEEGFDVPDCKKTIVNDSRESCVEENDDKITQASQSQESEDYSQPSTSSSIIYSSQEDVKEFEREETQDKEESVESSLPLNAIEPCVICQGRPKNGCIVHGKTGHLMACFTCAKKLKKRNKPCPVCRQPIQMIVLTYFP
# experiment: Inhibition of p53-MDM2 interaction (unknown origin) by TR-FRET assay

Worked set:
molecule: CC[C@@H](C)Oc1cc2c(cc1OC)CC(=O)N(c1ccc(N(C)Cc3ccc(F)cc3)cc1)C2c1ccc(Cl)cc1 (stereo partly specified)
assayMetric: IC50
reported: 120 nM
//
molecule: CCOc1cc2c(cc1OCC)C(c1ccc(Cl)cc1)N(c1ccc(OC)cc1)C(=O)C2 (racemic)
assayMetric: IC50
reported: 540 nM
//
molecule: CCOc1cc2c(cc1OCC)C(c1ccc(Cl)cc1)N(c1cccc(Cl)c1)C(=O)C2 (racemic)
assayMetric: IC50
reported: 1400 nM
//
molecule: CC[C@@H](C)Oc1cc2c(cc1OC)CC(=O)N(c1ccc(N(C)Cc3cccc(F)c3)cc1)C2c1ccc(Cl)cc1 (stereo partly specified)
assayMetric: IC50
reported: 170 nM
//
molecule: CCOc1cc2c(cc1OCC)C(c1ccc(Cl)cc1)N(c1ccc(Cl)cc1)C(=O)C2 (racemic)
assayMetric: IC50
reported: 1000 nM

I have this molecule here, CC[C@@H](C)Oc1cc2c(cc1OC)CC(=O)N(c1ccc(N(C)Cc3cccnc3)cc1)C2c1ccc(Cl)cc1 (stereo partly specified) , and I need its recorded IC50.
15 nM

# credit: ChEMBL document CHEMBL3603835
